- target.of.assay: UniProtKB P33261
- Sequence (P33261 whole entry): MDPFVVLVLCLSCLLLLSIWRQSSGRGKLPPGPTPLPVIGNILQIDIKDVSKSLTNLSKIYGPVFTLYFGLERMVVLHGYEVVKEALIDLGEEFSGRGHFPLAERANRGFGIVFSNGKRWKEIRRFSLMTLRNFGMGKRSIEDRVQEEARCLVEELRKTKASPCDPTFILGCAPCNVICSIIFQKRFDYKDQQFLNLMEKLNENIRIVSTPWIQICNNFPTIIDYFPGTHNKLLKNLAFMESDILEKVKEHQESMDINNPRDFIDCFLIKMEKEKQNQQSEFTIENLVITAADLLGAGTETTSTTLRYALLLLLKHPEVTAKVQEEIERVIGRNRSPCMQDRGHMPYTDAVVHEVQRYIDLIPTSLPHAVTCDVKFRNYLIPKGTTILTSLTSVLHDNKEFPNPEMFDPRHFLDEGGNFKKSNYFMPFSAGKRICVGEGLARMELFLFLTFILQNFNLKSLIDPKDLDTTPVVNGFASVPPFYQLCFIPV
- assay.details: Direct CYP inhibition in human liver microsomes with marker probe substrates
- protocol.conditions: read-out: Inhibition, IC50; HLM, CYP2C19 probe substrate
measured.metric: IC50 (µM)
Write the answer as a number in µM, unit excluded.

Query string: Provide measured IC50 value, entry: COc1ncccc1Nc1cc2nc3ccccc3n(-c3ccc(OC(F)(F)F)cc3)c-2cc1=NC1CCC(OC)CC1 (stereo not shown)
Result string: 4.49

* * *

- target.of.assay: CYP2C9 (Homo sapiens, UniProt P11712)
- Sequence (P11712 whole entry): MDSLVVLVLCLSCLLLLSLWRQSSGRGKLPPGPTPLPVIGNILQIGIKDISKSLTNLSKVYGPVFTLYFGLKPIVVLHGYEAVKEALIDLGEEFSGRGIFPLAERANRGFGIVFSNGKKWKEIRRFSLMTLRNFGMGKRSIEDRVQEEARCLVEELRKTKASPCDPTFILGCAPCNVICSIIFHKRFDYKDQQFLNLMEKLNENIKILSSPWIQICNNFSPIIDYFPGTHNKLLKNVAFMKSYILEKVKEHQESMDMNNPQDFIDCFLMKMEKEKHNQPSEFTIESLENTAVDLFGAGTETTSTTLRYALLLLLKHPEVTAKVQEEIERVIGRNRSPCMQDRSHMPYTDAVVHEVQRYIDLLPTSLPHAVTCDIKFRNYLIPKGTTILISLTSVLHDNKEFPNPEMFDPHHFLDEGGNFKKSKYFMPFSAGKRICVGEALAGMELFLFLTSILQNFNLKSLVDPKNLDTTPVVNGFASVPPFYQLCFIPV
- assay.details: Direct CYP inhibition in human liver microsomes with marker probe substrates
- protocol.conditions: read-out: Inhibition, IC50; HLM, CYP2C9 probe substrate
measured.metric: IC50
# output: numeric value plus its unit

Query string: Provide measured IC50 value, entry: COc1ncccc1Nc1cc2nc3ccccc3n(-c3ccc(OC(F)(F)F)cc3)c-2cc1=NC1CCC(OC)CC1 (stereo not shown) [TBI-166, Pyrifazimine]
Result string: 5.45 µM

* * *

- target.of.assay: CYP3A4 (Homo sapiens, UniProt P08684)
- Sequence (P08684 2-503): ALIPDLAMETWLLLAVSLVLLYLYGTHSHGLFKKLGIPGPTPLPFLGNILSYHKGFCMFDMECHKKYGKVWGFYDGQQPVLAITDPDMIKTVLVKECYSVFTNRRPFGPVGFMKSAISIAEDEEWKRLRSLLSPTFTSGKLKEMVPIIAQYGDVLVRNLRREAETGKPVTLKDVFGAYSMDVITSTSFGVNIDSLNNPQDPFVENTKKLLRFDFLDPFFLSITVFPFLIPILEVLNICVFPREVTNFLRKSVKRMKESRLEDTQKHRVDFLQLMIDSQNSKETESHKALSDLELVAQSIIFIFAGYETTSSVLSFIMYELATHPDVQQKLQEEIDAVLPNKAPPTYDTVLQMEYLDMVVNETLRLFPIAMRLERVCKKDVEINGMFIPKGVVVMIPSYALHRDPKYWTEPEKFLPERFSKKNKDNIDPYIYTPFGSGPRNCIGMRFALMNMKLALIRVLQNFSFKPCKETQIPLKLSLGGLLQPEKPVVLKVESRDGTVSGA
- protocol.conditions: read-out: Inhibition, IC50; HLM, CYP3A4 TEST (testosterone as probe substrate)
measured.metric: pIC50
pIC50 field: float, defined as -log10 of concentration (mol/L).

Query string: Provide measured pIC50 value, entry: COc1ncccc1Nc1cc2nc3ccccc3n(-c3ccc(OC(F)(F)F)cc3)c-2cc1=NC1CCC(OC)CC1 (stereo not shown)
Result string: 5.58
